# System: SK-MEL-2 melanoma
# EXPERIMENT_NOTES: NCI tumour cell line growth inhibition, 48 h
ENDPOINT_NAME: TGI

Worked cases, TGI given:
# COMPOUND, TGI
rows = [
    ("CC[C@@]1(CCC(=O)NCCc2c[nH]c3ccccc23)CCC(=O)N2CCc3c([nH]c4ccccc34)[C@H]21", "86.4 µM"),
    ("O=[N+]([O-])c1cccc(N=Nc2c(O)ccc3ccccc23)c1", "> 100 µM"),
    ("CC(C)[C@@H](C)[C@@]1(C)C[C@@H]1[C@@H](C)[C@H]1CC[C@@H]([C@@H]2CC=C3C[C@@H](O)CC[C@]3(C)C2=O)[C@]1(C)CCO", "33.3 µM"),
    ("Cc1nccc2c3ccc(OCc4cn(-c5ccc(Cl)cc5)nn4)cc3n(CC(C)C)c12", "22.5 µM"),
]

For every item below, please supply its TGI.
1. O=c1cc(-c2ccccc2)[nH]c2cc(Cl)ccc12
2. COc1ccc(OC)c2c3c([nH]c12)C(=O)Nc1nc(N)nc(N)c1C3

> 100 µM
> 100 µM

###

Assignment: determine reported TGI for the given compounds.
# Tested on: UO-31 renal
# EXPERIMENT_NOTES: NCI tumour cell line growth inhibition, 48 h

Worked cases, TGI given:
# COMPOUND, EXPERIMENTAL_VALUE
rows = [
    ("CC(O)[C@@]1(c2ccccc2)CC2(CCN(C)CC2)O[C@H]1C (stereo partly specified)", "> 100 µM"),
    ("COc1cccc(-c2c(-c3ccccc3)[nH]c(C)c2C(=O)ONC(=O)c2ccccc2)c1", "3.49 µM"),
    ("CCCN(CCC)C1=Nc2ccccc2-n2cnnc2C1", "> 100 µM"),
    ("COc1ccc(/C=C2\\c3cc(OC)c(OC)c(OC)c3CC[C@@H]2O)cc1F", "89.9 µM"),
    ("NC(=O)C(=CNC(=S)Nc1cccc(C(F)(F)F)c1)C(N)=O", "> 100 µM"),
    ("CC1(C)C2CCC(O)(C2)C1N (stereo unspecified)", "> 100 µM"),
    ("CCOC(=O)CNc1nnnn1C1OC(CO)C(O)C1O (stereo unspecified)", "> 100 µM"),
    ("O=C1NC(c2cccc(OCc3ccccc3)c2)Nc2ccccc21 (stereo unspecified)", "55 µM"),
    ("C/C(=N/Nc1nc(C)cc(=O)[nH]1)C(=O)O", "> 100 µM"),
    ("COC1=CC(=O)C2=C(C[C@@]3(C)C(=C2)C(CO)=CC[C@H]3O)C1=O", "39.5 µM"),
]

For every item below, please supply its TGI.
1. C[CH2][Sn]([CH2]C)([O]C(=O)c1ccc(OC)c(OC)c1OC)[O]C(=O)c1ccc(OC)c(OC)c1OC
2. CSc1ccc(C(=O)/C=C/c2ccccc2Cl)cc1
3. O=c1c(Cl)cc2nc3ccccc3sc-2c1Cl
4. O=C1CCCc2ccc3c(c21)CC1(Cc2ccccc2C1)C3
5. CCOC1CC2OC(=O)C1C=C2C(=O)OC (stereo unspecified)
6. C=CCN(N=O)C(=O)NCCCCC(NC(C)=O)C(=O)NCc1ccccc1 (stereo unspecified)

1: > 96.4 µM; 2: 5.05 µM; 3: 29.1 µM; 4: > 100 µM; 5: > 100 µM; 6: > 100 µM
